System: Sweetpotato Whitefly Crawler (Bemisia tabaci) (BEMITA)
protocol: Bioassay on Sweetpotato Whitefly Crawler, cotton plant foliar spray
Assay type: in vivo
run-parameters: 200 ppm spray on cotton plants, live nymphs counted after 8-9 days, read-out: BEMITA rating (% Control of Mortality, Abbott corrected)
Description: Cotton plants grown in 3-inch pots, with 1 small (3-5 cm) true leaf, were used at test substrate. The plants were placed in a room with whitely adults. Adults were allowed to deposit eggs for 2-3 days. After a 2-3 day egg-laying period, plants were taken from the adult whitefly room. Adults were blown off leaves using a hand-held Devilbliss sprayer (23 psi). […]

>  <compound>
CCN(C(=O)CC[S+]([O-])CCC(F)(F)F)c1cn(-c2cccnc2)nc1Cl (centres unmarked)

>  <mortality at 200 ppm>
80 to 100%

$$$$
>  <compound>
CC(=O)Nc1c[nH]nc1Cl [Compound 1b, N-(3-Chloro-1H-pyrazol-4-yl)acetamide]

>  <mortality at 200 ppm>
0 to 80%

$$$$
>  <compound>
CCNc1cn(-c2cccnc2)nc1Cl

>  <mortality at 200 ppm>
0 to 80%

$$$$
>  <compound>
CCN(C(=O)CCSCCC(F)(F)F)c1cn(-c2cccnc2)nc1Cl

>  <mortality at 200 ppm>
80 to 100%

$$$$
>  <compound>
CC(=O)Nc1cn(-c2cccnc2)nc1Cl

>  <mortality at 200 ppm>
0 to 80%

$$$$

* * *

Test system: Green Peach Aphid (Myzus persicae) (MYZUPE)
protocol: Bioassay on Green Peach Aphid (GPA), cabbage seedling foliar spray
Type: in vivo
run-parameters: 72 h, 200 ppm spray on cabbage seedlings, live aphids counted after three days, read-out: MYZUPE rating (% Control of Mortality, Abbott corrected)
Procedure: Several molecules disclosed herein were tested against GPA using procedures described below. Cabbage seedling grown in 3-in pots, with 2-3 small (3-5 cm) true leaves, were used as test substrate. […] Percent Control was measured by using Abbott's correction formula (W. S. Abbott, “A Method of Computing the Effectiveness of an Insecticide” J. Econ. Entomol 18 (1925), pp. 265-267) as follows. […]

>  <compound>
CCNc1cn(-c2cccnc2)nc1Cl

>  <mortality at 200 ppm>
0 to 80%

$$$$
>  <compound>
CC(=O)Nc1c[nH]nc1Cl [Compound 1b, N-(3-Chloro-1H-pyrazol-4-yl)acetamide]

>  <mortality at 200 ppm>
0 to 80%

$$$$
>  <compound>
CCN(C(=O)CC[S+]([O-])CCC(F)(F)F)c1cn(-c2cccnc2)nc1Cl (centres unmarked)

>  <mortality at 200 ppm>
80 to 100%

$$$$
>  <compound>
CCN(C(=O)CCSCCC(F)(F)F)c1cn(-c2cccnc2)nc1Cl

>  <mortality at 200 ppm>
80 to 100%

$$$$
>  <compound>
CC(=O)Nc1cn(-c2cccnc2)nc1Cl

>  <mortality at 200 ppm>
0 to 80%

$$$$
